Target: CK1γ2 (Homo sapiens, UniProt P78368)
Construct: purchased Carna Biosciences
Sequence (P78368 whole entry): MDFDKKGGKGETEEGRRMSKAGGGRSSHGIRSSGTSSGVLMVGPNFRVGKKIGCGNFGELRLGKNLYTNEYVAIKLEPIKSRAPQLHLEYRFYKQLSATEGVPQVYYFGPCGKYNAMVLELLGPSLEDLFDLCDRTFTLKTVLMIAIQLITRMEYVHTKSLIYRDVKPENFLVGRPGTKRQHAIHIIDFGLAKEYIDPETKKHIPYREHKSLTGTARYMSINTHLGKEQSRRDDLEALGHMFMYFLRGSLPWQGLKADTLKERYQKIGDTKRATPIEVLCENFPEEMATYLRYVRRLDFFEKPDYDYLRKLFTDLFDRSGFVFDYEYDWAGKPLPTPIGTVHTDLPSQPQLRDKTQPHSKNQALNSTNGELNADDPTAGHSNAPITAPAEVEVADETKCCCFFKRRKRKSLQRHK
Experiment: Kinase panel profiling at 1 µmol/L (mobility shift assay, Carna)
Type: biochemical
Conditions: 1 µmol/L of BTK inhibitor
Measure name: Percentage inhibition of kinase enzyme activity (%)

{"columns": ["Compound smiles", "Endpoint unit", "Meas value"],
 "data": [
  ["CC#CC(=O)N1CCC[C@H]1c1nc(-c2ccc(C(=O)Nc3ccccn3)cc2)c2c(N)nccn12", "%", -7.07],
  ["O=C(c1ccc(Oc2ccccc2)cc1Cl)c1c[nH]c2ncnc(N[C@@H]3CC[C@@H](CO)OC3)c12", "%", -5.17],
  ["COc1ccc(F)cc1C(=O)NCc1ccc(-c2nn([C@@H](C)C(F)(F)F)c(N)c2C(N)=O)cc1", "%", 1.27],
  ["C=CC(=O)N1CCC[C@@H](n2nc(-c3ccc(Oc4ccccc4)cc3)c3c(N)ncnc32)C1", "%", 1.01]
]}

====

Target: TRKC (Homo sapiens, UniProt Q16288)
Construct: purchased Carna Biosciences
Assay: Kinase panel profiling at 1 µmol/L (mobility shift assay, Carna)
Format: biochemical
Conditions: 1 µmol/L of BTK inhibitor
The entries below are paired with their reported Percentage inhibition of kinase enzyme activity.
Measure name: Percentage inhibition of kinase enzyme activity

{"columns": ["Molecule", "Meas value"],
 "data": [
  ["COc1ccc(F)cc1C(=O)NCc1ccc(-c2nn([C@@H](C)C(F)(F)F)c(N)c2C(N)=O)cc1 [pirtobrutinib]", "5.23%"],
  ["O=C(c1ccc(Oc2ccccc2)cc1Cl)c1c[nH]c2ncnc(N[C@@H]3CC[C@@H](CO)OC3)c12 [nemtabrutinib]", "99.56%"],
  ["C=CC(=O)N1CCC[C@@H](n2nc(-c3ccc(Oc4ccccc4)cc3)c3c(N)ncnc32)C1 [ibrutinib]", "23.90%"],
  ["CC#CC(=O)N1CCC[C@H]1c1nc(-c2ccc(C(=O)Nc3ccccn3)cc2)c2c(N)nccn12 [acalabrutinib]", "11.12%"]
]}

====

Molecular target: PKCβ2 (Homo sapiens, UniProt P05771)
Construct: purchased Carna Biosciences
Sequence (P05771 1-673 isoform P05771-2): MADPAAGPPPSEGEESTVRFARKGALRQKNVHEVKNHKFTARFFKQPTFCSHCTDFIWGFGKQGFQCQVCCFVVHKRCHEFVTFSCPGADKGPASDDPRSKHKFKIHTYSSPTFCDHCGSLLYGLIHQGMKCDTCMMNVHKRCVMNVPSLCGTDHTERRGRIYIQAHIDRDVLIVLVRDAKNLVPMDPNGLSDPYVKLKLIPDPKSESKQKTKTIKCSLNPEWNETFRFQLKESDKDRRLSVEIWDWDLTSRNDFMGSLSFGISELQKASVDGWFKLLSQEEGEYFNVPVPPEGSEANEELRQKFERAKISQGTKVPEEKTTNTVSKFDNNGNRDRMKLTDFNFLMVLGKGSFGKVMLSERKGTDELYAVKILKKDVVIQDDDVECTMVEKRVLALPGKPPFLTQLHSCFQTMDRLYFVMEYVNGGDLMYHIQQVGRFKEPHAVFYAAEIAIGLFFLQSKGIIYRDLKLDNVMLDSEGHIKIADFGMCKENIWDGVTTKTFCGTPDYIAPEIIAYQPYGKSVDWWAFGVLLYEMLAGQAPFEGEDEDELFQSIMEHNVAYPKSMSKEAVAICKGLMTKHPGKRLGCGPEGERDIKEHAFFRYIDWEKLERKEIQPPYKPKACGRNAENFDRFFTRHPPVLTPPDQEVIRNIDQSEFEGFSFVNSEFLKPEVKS
Assay: Kinase panel profiling at 1 µmol/L (mobility shift assay, Carna)
Type: biochemical
Conditions: 1 µmol/L of BTK inhibitor
The entries below are paired with their reported Percentage inhibition of kinase enzyme activity.
Measure name: Percentage inhibition of kinase enzyme activity (%)

{"columns": ["Compound smiles", "Meas value"],
 "data": [
  ["C=CC(=O)N1CCC([C@@H]2CCNc3c(C(N)=O)c(-c4ccc(Oc5ccccc5)cc4)nn32)CC1", -1.66],
  ["CC#CC(=O)N1CCC[C@H]1c1nc(-c2ccc(C(=O)Nc3ccccn3)cc2)c2c(N)nccn12", -12.04],
  ["O=C(c1ccc(Oc2ccccc2)cc1Cl)c1c[nH]c2ncnc(N[C@@H]3CC[C@@H](CO)OC3)c12", -1.79],
  ["COc1ccc(F)cc1C(=O)NCc1ccc(-c2nn([C@@H](C)C(F)(F)F)c(N)c2C(N)=O)cc1", -8.67],
  ["C=CC(=O)N1CCC[C@@H](n2nc(-c3ccc(Oc4ccccc4)cc3)c3c(N)ncnc32)C1", 1.78]
]}

====

Biological target: CDK3/CycE1 (Homo sapiens, UniProt Q00526)
Construct: purchased Carna Biosciences
Sequence (Q00526 whole entry): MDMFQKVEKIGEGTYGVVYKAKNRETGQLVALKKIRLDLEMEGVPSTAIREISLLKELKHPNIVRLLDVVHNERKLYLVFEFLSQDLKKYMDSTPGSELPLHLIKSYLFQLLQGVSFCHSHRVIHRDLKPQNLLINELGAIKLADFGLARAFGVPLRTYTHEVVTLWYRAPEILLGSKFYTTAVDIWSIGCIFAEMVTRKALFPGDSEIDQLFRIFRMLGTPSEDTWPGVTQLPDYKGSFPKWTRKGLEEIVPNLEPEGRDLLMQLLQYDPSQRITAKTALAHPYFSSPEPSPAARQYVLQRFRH
Sequence (P24864 whole entry partner): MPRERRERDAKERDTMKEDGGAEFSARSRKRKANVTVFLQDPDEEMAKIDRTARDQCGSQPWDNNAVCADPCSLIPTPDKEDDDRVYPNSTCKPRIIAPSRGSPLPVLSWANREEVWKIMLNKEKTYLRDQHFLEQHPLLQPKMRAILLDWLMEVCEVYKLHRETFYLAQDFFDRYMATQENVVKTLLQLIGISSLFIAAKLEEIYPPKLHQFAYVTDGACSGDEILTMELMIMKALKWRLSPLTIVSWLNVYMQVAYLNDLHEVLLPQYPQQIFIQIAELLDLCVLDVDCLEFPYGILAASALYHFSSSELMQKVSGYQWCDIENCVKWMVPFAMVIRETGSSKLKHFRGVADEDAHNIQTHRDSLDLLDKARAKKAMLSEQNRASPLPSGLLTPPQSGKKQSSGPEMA
Assay: Kinase panel profiling at 1 µmol/L (mobility shift assay, Carna)
Format: biochemical
Conditions: 1 µmol/L of BTK inhibitor
The entries below are paired with their reported Percentage inhibition of kinase enzyme activity.
Measure name: Percentage inhibition of kinase enzyme activity (%)

{"columns": ["Compound smiles", "Meas value"],
 "data": [
  ["CC#CC(=O)N1CCC[C@H]1c1nc(-c2ccc(C(=O)Nc3ccccn3)cc2)c2c(N)nccn12", -6.14],
  ["COc1ccc(F)cc1C(=O)NCc1ccc(-c2nn([C@@H](C)C(F)(F)F)c(N)c2C(N)=O)cc1", -4.77],
  ["O=C(c1ccc(Oc2ccccc2)cc1Cl)c1c[nH]c2ncnc(N[C@@H]3CC[C@@H](CO)OC3)c12", 7.04],
  ["C=CC(=O)N1CCC[C@@H](n2nc(-c3ccc(Oc4ccccc4)cc3)c3c(N)ncnc32)C1", 0.49]
]}

====

Molecular target: MER (Homo sapiens, UniProt Q12866)
Construct: purchased Carna Biosciences
Sequence (Q12866 21-999): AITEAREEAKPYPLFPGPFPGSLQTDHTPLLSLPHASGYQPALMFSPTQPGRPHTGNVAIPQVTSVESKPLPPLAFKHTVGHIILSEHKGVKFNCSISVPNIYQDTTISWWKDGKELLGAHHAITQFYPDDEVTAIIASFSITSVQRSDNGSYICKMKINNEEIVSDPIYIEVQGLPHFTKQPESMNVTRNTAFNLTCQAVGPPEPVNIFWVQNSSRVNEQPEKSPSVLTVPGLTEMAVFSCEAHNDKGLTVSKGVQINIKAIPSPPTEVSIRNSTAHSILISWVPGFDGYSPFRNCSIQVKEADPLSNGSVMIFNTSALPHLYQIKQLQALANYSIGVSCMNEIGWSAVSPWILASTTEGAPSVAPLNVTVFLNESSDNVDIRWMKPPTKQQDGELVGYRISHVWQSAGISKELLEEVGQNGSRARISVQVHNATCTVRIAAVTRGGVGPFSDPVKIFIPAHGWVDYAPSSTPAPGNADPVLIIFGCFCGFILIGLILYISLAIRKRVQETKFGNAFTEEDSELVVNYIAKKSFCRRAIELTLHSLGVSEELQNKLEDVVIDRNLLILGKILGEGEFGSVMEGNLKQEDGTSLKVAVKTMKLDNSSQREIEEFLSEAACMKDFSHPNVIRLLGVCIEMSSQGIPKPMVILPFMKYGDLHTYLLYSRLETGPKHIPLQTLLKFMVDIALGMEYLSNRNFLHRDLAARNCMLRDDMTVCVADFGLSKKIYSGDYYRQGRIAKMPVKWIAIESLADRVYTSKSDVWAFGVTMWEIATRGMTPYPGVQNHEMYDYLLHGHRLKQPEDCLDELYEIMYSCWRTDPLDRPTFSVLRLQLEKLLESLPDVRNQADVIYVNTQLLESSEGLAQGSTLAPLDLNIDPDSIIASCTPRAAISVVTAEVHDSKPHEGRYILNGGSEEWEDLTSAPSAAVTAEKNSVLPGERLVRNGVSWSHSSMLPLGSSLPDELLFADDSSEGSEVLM
Assay: Kinase panel profiling at 1 µmol/L (mobility shift assay, Carna)
Format: biochemical
Conditions: 1 µmol/L of BTK inhibitor
The entries below are paired with their reported Percentage inhibition of kinase enzyme activity.
Measure name: Percentage inhibition of kinase enzyme activity (%)

{"columns": ["Compound smiles", "Endpoint unit", "Meas value"],
 "data": [
  ["O=C(c1ccc(Oc2ccccc2)cc1Cl)c1c[nH]c2ncnc(N[C@@H]3CC[C@@H](CO)OC3)c12", "%", 29.53],
  ["C=CC(=O)N1CCC([C@@H]2CCNc3c(C(N)=O)c(-c4ccc(Oc5ccccc5)cc4)nn32)CC1", "%", -2.35],
  ["CC#CC(=O)N1CCC[C@H]1c1nc(-c2ccc(C(=O)Nc3ccccn3)cc2)c2c(N)nccn12", "%", -3.37],
  ["COc1ccc(F)cc1C(=O)NCc1ccc(-c2nn([C@@H](C)C(F)(F)F)c(N)c2C(N)=O)cc1", "%", -2.75]
]}

====

Test system: HuTu 80
Test: Cell viability assay (ATPlite)
Format: cell-based
Conditions: Homo sapiens, HuTu80; HuTu 80 cell line, 72 hours incubation
pIC50: −log10 of the molar value.
Measure name: pIC50

{"columns": ["Compound smiles", "Meas value"],
 "data": [
  ["O=C(c1ccc(Oc2ccccc2)cc1Cl)c1c[nH]c2ncnc(N[C@@H]3CC[C@@H](CO)OC3)c12", 5.77]
]}

====

Target: WNK1 (Homo sapiens, UniProt Q9H4A3)
Construct: purchased Carna Biosciences
Sequence (Q9H4A3 whole entry): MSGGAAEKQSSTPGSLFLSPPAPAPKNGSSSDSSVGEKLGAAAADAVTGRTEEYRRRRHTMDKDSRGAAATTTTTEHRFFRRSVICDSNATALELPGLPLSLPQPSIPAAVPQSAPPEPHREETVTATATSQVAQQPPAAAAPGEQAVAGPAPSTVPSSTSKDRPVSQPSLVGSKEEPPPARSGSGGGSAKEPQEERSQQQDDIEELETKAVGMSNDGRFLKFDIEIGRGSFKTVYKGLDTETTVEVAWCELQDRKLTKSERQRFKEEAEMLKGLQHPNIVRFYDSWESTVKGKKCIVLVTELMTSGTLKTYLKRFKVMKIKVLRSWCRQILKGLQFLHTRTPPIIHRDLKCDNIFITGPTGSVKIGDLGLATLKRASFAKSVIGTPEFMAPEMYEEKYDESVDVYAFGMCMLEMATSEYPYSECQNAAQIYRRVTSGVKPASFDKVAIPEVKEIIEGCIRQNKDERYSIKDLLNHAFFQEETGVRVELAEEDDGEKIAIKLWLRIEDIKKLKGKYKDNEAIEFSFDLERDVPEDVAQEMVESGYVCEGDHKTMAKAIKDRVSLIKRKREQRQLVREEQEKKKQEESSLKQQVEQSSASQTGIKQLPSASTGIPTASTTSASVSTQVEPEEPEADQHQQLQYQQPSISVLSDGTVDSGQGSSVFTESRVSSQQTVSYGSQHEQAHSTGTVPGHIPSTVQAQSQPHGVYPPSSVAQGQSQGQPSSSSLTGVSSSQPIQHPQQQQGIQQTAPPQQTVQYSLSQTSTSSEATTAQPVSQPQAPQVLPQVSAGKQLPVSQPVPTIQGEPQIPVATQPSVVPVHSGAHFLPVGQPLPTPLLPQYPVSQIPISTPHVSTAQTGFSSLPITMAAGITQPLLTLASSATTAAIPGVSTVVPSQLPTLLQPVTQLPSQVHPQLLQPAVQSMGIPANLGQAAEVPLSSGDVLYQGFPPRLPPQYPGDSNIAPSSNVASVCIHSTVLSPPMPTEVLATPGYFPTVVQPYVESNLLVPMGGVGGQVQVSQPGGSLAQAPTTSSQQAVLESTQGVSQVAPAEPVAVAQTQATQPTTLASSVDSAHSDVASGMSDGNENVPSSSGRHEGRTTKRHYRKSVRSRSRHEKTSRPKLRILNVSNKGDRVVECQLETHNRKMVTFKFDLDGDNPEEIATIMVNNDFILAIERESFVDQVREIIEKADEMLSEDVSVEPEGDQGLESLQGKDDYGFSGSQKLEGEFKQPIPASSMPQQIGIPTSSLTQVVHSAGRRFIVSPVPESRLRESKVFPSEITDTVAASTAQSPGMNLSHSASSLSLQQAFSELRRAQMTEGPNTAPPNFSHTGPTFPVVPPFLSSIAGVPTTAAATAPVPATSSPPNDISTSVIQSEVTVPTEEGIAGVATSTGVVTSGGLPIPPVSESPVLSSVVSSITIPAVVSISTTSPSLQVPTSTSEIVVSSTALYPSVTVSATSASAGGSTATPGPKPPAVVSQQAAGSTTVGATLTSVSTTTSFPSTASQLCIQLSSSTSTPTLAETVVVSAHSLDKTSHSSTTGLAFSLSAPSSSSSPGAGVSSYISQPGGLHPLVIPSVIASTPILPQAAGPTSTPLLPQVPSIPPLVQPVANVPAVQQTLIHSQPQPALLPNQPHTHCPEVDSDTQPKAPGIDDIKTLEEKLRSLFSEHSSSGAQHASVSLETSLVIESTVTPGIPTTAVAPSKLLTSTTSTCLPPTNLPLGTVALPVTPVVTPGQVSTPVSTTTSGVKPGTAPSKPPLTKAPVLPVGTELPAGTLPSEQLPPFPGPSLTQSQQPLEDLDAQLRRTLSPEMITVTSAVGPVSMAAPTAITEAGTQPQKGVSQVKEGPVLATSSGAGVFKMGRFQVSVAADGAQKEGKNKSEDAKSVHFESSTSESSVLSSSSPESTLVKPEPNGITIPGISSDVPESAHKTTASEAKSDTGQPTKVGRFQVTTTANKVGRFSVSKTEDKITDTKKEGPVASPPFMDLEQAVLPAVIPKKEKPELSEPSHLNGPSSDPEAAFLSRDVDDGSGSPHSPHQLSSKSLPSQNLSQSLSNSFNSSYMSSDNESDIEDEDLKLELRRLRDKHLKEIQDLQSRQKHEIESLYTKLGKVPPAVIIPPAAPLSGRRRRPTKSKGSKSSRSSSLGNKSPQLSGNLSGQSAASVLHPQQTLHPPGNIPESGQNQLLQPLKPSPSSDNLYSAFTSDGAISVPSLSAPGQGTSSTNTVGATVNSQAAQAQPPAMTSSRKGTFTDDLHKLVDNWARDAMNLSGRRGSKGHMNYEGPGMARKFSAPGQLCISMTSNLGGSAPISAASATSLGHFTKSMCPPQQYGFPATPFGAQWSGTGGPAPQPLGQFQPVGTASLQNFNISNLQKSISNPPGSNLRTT
Experiment: Kinase panel profiling at 1 µmol/L (mobility shift assay, Carna)
Assay type: biochemical
Details: 1 µmol/L of BTK inhibitor
The entries below are paired with their reported Percentage inhibition of kinase enzyme activity.
Measure name: Percentage inhibition of kinase enzyme activity (%)

{"columns": ["Compound smiles", "Endpoint unit", "Meas value"],
 "data": [
  ["O=C(c1ccc(Oc2ccccc2)cc1Cl)c1c[nH]c2ncnc(N[C@@H]3CC[C@@H](CO)OC3)c12", "%", 8.78],
  ["CC#CC(=O)N1CCC[C@H]1c1nc(-c2ccc(C(=O)Nc3ccccn3)cc2)c2c(N)nccn12", "%", 5.36],
  ["COc1ccc(F)cc1C(=O)NCc1ccc(-c2nn([C@@H](C)C(F)(F)F)c(N)c2C(N)=O)cc1", "%", -5.02],
  ["C=CC(=O)N1CCC[C@@H](n2nc(-c3ccc(Oc4ccccc4)cc3)c3c(N)ncnc32)C1", "%", 2.30]
]}

====

Biological target: CaMK1δ (Homo sapiens, UniProt Q8IU85)
Construct: purchased Carna Biosciences
Sequence (Q8IU85 whole entry): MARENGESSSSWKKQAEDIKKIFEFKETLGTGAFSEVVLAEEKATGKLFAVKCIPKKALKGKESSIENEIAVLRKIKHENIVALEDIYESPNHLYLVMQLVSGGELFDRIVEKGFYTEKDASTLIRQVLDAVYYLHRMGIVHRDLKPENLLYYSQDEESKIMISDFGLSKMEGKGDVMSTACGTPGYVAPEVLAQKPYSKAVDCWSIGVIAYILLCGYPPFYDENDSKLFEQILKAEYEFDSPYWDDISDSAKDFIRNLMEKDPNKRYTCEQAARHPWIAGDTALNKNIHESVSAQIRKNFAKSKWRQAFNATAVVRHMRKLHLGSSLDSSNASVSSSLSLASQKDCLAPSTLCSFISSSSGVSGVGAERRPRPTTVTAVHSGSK
Assay: Kinase panel profiling at 1 µmol/L (mobility shift assay, Carna)
Format: biochemical
Details: 1 µmol/L of BTK inhibitor
Measure name: Percentage inhibition of kinase enzyme activity (%)

{"columns": ["Compound smiles", "Endpoint unit", "Meas value"],
 "data": [
  ["O=C(c1ccc(Oc2ccccc2)cc1Cl)c1c[nH]c2ncnc(N[C@@H]3CC[C@@H](CO)OC3)c12", "%", 9.32],
  ["COc1ccc(F)cc1C(=O)NCc1ccc(-c2nn([C@@H](C)C(F)(F)F)c(N)c2C(N)=O)cc1", "%", 2.74],
  ["C=CC(=O)N1CCC[C@@H](n2nc(-c3ccc(Oc4ccccc4)cc3)c3c(N)ncnc32)C1", "%", 4.85],
  ["CC#CC(=O)N1CCC[C@H]1c1nc(-c2ccc(C(=O)Nc3ccccn3)cc2)c2c(N)nccn12", "%", -5.01]
]}
